Values compiled from patent US8211929B2.

Readings of IC50 for the listed compounds
target-desc: (Homo sapiens)
Construct: human IGF1R kinase domain residues M954-C1367; made in house; host or cells: baculovirus expression (insect cells)
Sequence (P08069 954-1367): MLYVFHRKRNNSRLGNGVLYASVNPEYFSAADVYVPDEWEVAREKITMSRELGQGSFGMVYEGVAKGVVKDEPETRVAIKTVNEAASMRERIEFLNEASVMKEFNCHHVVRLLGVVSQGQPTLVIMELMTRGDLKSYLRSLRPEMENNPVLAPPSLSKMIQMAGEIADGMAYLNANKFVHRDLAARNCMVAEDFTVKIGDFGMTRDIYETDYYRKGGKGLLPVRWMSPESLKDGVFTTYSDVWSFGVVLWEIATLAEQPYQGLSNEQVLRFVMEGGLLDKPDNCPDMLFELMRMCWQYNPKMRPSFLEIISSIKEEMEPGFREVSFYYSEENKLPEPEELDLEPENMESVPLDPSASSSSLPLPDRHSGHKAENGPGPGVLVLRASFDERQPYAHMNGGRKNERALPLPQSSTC
procedure-summary: IGF1R kinase assay (LCCA), IGF 0P
Format: biochemical

compound	IC50
CCc1cc(CNc2nc(Nc3cc(C4CC4)n[nH]3)cc(N3CCOCC3)n2)on1 [Example 656]	50 to 500 nM
CC(C)c1cc(Nc2cc(OCCN3CCCCC3)nc(NCc3cc(C(C)C)no3)n2)[nH]n1 [Example 595]	50 to 500 nM
Cc1cc(CNc2nc(Nc3cc(C4CC4)[nH]n3)cc(N3C[C@H]4C[C@@H]3CN4Cc3ccccc3)n2)on1 [Example 635]	50 to 500 nM
c1cc(-c2cc(CNc3nc(Nc4cc(C5CC5)[nH]n4)cc(N4CCOCC4)n3)on2)ncn1 [Example 637]	50 to 500 nM
CC(C)c1cc(CNc2nc(Nc3cc(C(C)C)[nH]n3)cc(OCCN3CCOCC3)n2)on1 [Example 587]	500 to 5000 nM

// CC(C)c1cc(Nc2cc(OCCN3CCOCC3)nc(NCc3cc(-c4ccc(F)cc4)no3)n2)[nH]n1 [Example 609] : IC50 value = 50 to 500 nM

// CN1CCN(c2cc(Nc3cc(C4CC4)n[nH]3)nc(NCc3cc(-c4cncnc4)no3)n2)CC1 [Example 642] : IC50 value = 50 to 500 nM

// CN(C)CCOc1cc(Nc2cc(C3CC3)[nH]n2)nc(NCc2cc(-c3ccccn3)no2)n1 [Example 641] : IC50 value = 50 to 500 nM

// Cc1cc(CNc2nc(Nc3cc(C4CC4)[nH]n3)cc(NC3CC4CCC(C3)N4C)n2)on1 (centres unmarked) [Example 630] : IC50 value = 50 to 500 nM

// CC(C)c1cc(Nc2cc(N3CCN[C@@H](C)C3)nc(NCc3cc(-c4ccccc4)no3)n2)n[nH]1 [Example 591] : IC50 value = 50 to 500 nM

// CC(C)c1cc(CNc2nc(Nc3cc(C4CC4)n[nH]3)cc(N3CCC(CCO)CC3)n2)on1 [Example 662] : IC50 value = 50 to 500 nM

// CC(C)c1cc(CNc2nc(Nc3cc(C4CC4)[nH]n3)cc(OCCN3CCOCC3)n2)on1 [Example 594] : IC50 value = 500 to 5000 nM

// Cc1cc(CNc2nc(Nc3cc(C4CC4)n[nH]3)cc(N3CCN(C)CC3)n2)on1 [Example 602] : IC50 value = 50 to 500 nM

// Cc1cc(Nc2cc(N3CCOCC3)nc(NCc3cc(-c4ccccc4)no3)n2)[nH]n1 [Example 617] : IC50 value = 50 to 500 nM

// Clc1c(Nc2cc(C3CC3)n[nH]2)nc(NCc2cc(-c3ccccc3)no2)nc1N1CCOCC1 [Example 624] : IC50 value = 50 to 500 nM

// CC(C)c1cc(CNc2nc(Nc3cc(C4CC4)n[nH]3)cc(OCCN3CCCCC3)n2)on1 [Example 597] : IC50 value = 50 to 500 nM

// Cc1cc(CNc2nc(C)cc(Nc3cc(C4CC4)n[nH]3)n2)on1 [Example 600] : IC50 value = 50 to 500 nM

// Cc1cc(CNc2nc(Nc3cc(C4CC4)[nH]n3)cc(NC3CC4CCC3C4)n2)on1 (centres unmarked) [Example 634] : IC50 value = 50 to 500 nM

// CCN(CC)CCNc1cc(Nc2cc(C(C)C)[nH]n2)nc(NCc2cc(-c3ccccc3)no2)n1 [Example 592] : IC50 value = 50 to 500 nM

// c1ccc(-c2cc(CNc3nc(Nc4cc(C5CC5)[nH]n4)cc(N4CCOCC4)n3)on2)nc1 [Example 612] : IC50 value = 50 to 500 nM

// Cc1cc(CNc2nc(Nc3cc(C4CC4)[nH]n3)cc(OCCN3CCCC3)n2)on1 [Example 647] : IC50 value = 50 to 500 nM

// CN1CCN(c2cc(Nc3cc(C4CC4)[nH]n3)nc(NCc3cc(-c4nccs4)no3)n2)CC1 [Example 648] : IC50 value = 50 to 500 nM

// Cc1cc(Nc2cc(OCCN(C)C)nc(NCc3cc(C)no3)n2)[nH]n1 [Example 650] : IC50 value = 500 to 5000 nM

// Cc1cc(Nc2cc(N3CCN(C)CC3)nc(NCc3cc(C)no3)n2)[nH]n1 [Example 626] : IC50 value = 500 to 5000 nM

// CC(C)c1cc(CNc2nc(Nc3cc(C4CC4)[nH]n3)cc(N3CCN(S(C)(=O)=O)CC3)n2)on1 [Example 615] : IC50 value = 50 to 500 nM

// Cc1cc(Nc2cc(C3CC3)[nH]n2)nc(NCc2cc(-c3cccnc3)no2)n1 [Example 610] : IC50 value = 50 to 500 nM
